Reported values of manual score for individual entries
# subject.of.test: G protein-activated inward rectifier potassium channel 2 (Homo sapiens) + G protein-activated inward rectifier potassium channel 1 (Homo sapiens) (UniProt P48051+P48549)
# Sequence (P48051 whole entry, looked up): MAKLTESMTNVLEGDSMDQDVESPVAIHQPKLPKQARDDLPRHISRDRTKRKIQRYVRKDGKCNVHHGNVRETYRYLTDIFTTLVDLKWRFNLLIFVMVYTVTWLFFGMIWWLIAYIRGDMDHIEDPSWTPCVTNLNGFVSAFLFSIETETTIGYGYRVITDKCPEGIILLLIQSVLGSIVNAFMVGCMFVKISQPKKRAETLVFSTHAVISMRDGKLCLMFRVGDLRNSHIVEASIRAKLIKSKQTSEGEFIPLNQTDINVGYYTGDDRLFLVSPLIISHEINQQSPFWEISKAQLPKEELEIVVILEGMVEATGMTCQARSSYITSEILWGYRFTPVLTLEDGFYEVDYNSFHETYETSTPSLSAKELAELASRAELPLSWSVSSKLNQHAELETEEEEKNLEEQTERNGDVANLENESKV
# Sequence (P48549 whole entry, looked up): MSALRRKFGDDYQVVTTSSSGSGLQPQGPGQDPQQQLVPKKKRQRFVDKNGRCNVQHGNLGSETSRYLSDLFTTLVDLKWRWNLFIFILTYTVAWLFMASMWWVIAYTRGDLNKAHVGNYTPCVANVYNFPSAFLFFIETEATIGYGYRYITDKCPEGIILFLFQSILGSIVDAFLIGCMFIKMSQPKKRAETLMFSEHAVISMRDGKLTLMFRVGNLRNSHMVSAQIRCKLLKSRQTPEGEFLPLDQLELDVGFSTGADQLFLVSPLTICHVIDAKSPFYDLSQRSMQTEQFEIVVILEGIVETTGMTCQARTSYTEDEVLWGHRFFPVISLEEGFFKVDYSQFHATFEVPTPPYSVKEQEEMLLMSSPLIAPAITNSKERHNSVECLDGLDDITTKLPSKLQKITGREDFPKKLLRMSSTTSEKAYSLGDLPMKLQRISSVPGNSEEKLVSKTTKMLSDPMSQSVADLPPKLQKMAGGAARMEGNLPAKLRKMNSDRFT
# test.method.notes: GIRK1/2 thallium flux modulators, retest, confirmation, cell-based, HEK293 rmGlu8/hGIRK1/2, FluoZin-2 (AID 623911)
# particulars: HEK293 rmGlu8/hGIRK1/2, thallium flux FluoZin-2; actives lie on both sides; glutamate co-added at its EC20 level
The campaign covered roughly 2,100 compounds. About 770 (37%) were called active. This is one part of the list.

Answered cases to consult:
molecule: CCCCOC(=S)NC(=O)c1sc2ccccc2c1Cl
manual score: 1 (active)
--
molecule: O=C(c1ccco1)N1CCN(C(=O)c2cnn3c2NC(c2cccs2)CC3C(F)(F)F)CC1 (configuration not stated)
manual score: 0 (inactive)
--
molecule: Cc1ccccc1NC(=S)NC(=O)c1cc(-c2ccccc2)nc2ccccc12
manual score: 0 (inactive)

# input Entry O=C(c1ccc(-c2ccccc2)cc1)N1CCN(c2ncccn2)CC1 needs its manual score filled in; supply it.
# output 0 (inactive)

# input Entry CC1CCc2c(sc(NC(=O)C(=O)NCc3ccco3)c2C#N)C1 (configuration not stated) needs its manual score filled in; supply it.
# output 0 (inactive)

# input Entry Cc1ccccc1NC(=S)NC(=O)c1cncc(Br)c1 needs its manual score filled in; supply it.
# output 1 (active)

# input Entry Fc1cc(Br)ccc1NC(=S)NCCc1ccccc1 needs its manual score filled in; supply it.
# output 0 (inactive)

# input Entry Cc1sc2c(c1C)CN(C1CC(C)(C)NC(C)(C)C1)CN2C(=O)c1ccco1 needs its manual score filled in; supply it.
# output -1 (active)

# input Entry O=C(NC(=S)Nc1ccccc1)c1csnn1 needs its manual score filled in; supply it.
# output 1 (active)

# input Entry NS(=O)(=O)c1ccc(NC(=O)C2COc3ccccc3O2)cc1 (configuration not stated) needs its manual score filled in; supply it.
# output 0 (inactive)

# input Entry O=C(/C=C/c1ccc(Cl)cc1)NC(=S)NN1CCCCC1c1cccnc1 (configuration not stated) needs its manual score filled in; supply it.
# output 0 (inactive)

# input Entry Cc1cccc(C(=O)CC(=O)c2cc(Cl)ccc2O)c1 needs its manual score filled in; supply it.
# output 0.5 (inactive)

# input Entry CCN(CC)c1ccc2cc(C(=O)NNC(=O)c3ccc(S(=O)(=O)N4CCCCC4)cc3)c(=O)oc2c1 needs its manual score filled in; supply it.
# output 0 (inactive)

# input Entry CCOC(=O)C1=C(C)Nc2nnnn2C1c1ccccc1Cl (configuration not stated) needs its manual score filled in; supply it.
# output -1 (active)

# input Entry Cc1ccc2cccc(Oc3nnnn3-c3ccccc3)c2n1 needs its manual score filled in; supply it.
# output -1 (active)

# input Entry CCc1cc(-c2n[nH]c(C)c2-c2nc3ccccc3n2C)c(O)c(CN2CCN(C)CC2)c1O needs its manual score filled in; supply it.
# output -1 (active)

# input Entry CC(Cc1cccs1)NC(=O)Nc1ccc(Cl)cc1 (configuration not stated) needs its manual score filled in; supply it.
# output 0.5 (inactive)

# input Entry COc1ccccc1NC(=O)COc1ccc(Br)cc1CO needs its manual score filled in; supply it.
# output 0 (inactive)

# input Entry CN(C)c1nc2ccccc2c(N)c1-c1ccccc1 needs its manual score filled in; supply it.
# output -1 (active)

# input Entry O=C(Nc1ccc(F)c(F)c1)NC1CCCCC1 needs its manual score filled in; supply it.
# output 1 (active)

# input Entry O=C(Nc1ccc(N2CCCCC2)c(Cl)c1)c1ncn[nH]1 needs its manual score filled in; supply it.
# output 0 (inactive)

# input Entry Cc1cc(C)cc(OCC(=O)N2N=C(C(F)(F)F)CC2(O)C(C)(C)C)c1 (configuration not stated) needs its manual score filled in; supply it.
# output 0 (inactive)
